assayName: logP (pH2) determination by HPLC, EEC directive 79/831 Annex V. A8
Format: physicochemical
experimentalParameters: pH2; Table 1, compounds of formula (I); only decimal values are logP
Please assign class 0 whenever logP (pH2) is at or above 4, and class 1 whenever it is below.

>>> df
                                   compound  discretelabel
0  Cn1nnc(-c2ccc(NC(=O)NC(=O)c3c(F)cccc3F)c(Cl)c2)n1 [Example 5]        class 1
1  O=C(NC(=O)c1c(F)cccc1F)Nc1cc(Cl)c(-c2nn[nH]n2)cc1Cl [Example 7]        class 1
2  CC(C)(C)n1nnc(-c2ccc(NC(=O)NC(=O)c3c(F)cccc3F)cc2Cl)n1 [Example 35]        class 1
3  O=C(NC(=O)c1c(F)cccc1F)Nc1ccc(Cl)cc1-c1nn[nH]n1 [Example 6]        class 1

Shift focus to the following entry.
Query: Please state whether logP (pH2) is below 4 for CC(C)(C)n1nnc(-c2cc(Cl)ccc2NC(=O)NC(=O)c2c(F)cccc2F)n1 [Example 11]
Result: class 0

---

I'd be grateful if you could share measured chromatographic logP for these entries.
assayName: logP (pH2) determination by HPLC, EEC directive 79/831 Annex V. A8
Format: physicochemical
experimentalParameters: pH 2; pH2; HPLC gradient acetonitrile/0.1% aqueous phosphoric acid; values in preparation examples; read-out: log P(pH2)

Example cases with answers are listed next.
>>> print(df.to_string())
                                   molecule  measuredresult
0  O=C(NC(=O)c1c(F)cccc1F)Nc1ccc(-c2nnn(C3CCCCO3)n2)cc1Cl (stereo not drawn)            3.72
1      Nc1ccc(-c2nnn(Cc3ccc(Br)cc3)n2)cc1Cl            3.52
2           CC(C)(C)n1nnc(-c2cc(Cl)ccc2N)n1            3.58
3                  Nc1ccc(-c2nn[nH]n2)cc1Cl               1
4                  Cn1nnnc1-c1ccc(N)c(Cl)c1            1.17

Measured chromatographic logP, O=C(NC(=O)c1c(F)cccc1F)Nc1ccc(-c2nn[nH]n2)cc1Cl : 2.13

---

assayName: logP (pH2) determination by HPLC, EEC directive 79/831 Annex V. A8
Format: physicochemical
experimentalParameters: pH2; Table 2, tetrazolylanilines of formula (III)
Give measured logP (pH2) for each item. Keep answers brief.

                          compoundsmiles  measuredresult
0        CC(C)(C)n1nnc(-c2ccc(N)cc2Cl)n1            2.42
1          Nc1ccc(-c2nnn(C(F)F)n2)c(F)c1            1.84
2      COC(=O)Cn1nnc(-c2ccc(N)c(Cl)c2)n1            1.92
3  CC(C)(C)n1nnc(-c2cc(Cl)c(N)c(Cl)c2)n1            3.81
4           Nc1ccc(-c2nnn(C(F)F)n2)cc1Cl            2.08
5             Cn1nnc(-c2ccc(N)c(Cl)c2)n1            1.70

Record logP (pH2) for all entries; do not skip any.
1. CC(C)Cn1nnc(-c2ccc(N)c(Cl)c2)n1
2. CC(C)(C)n1nnc(-c2ccc(N)cc2F)n1
3. CC(C)Cn1nnc(-c2cc(Cl)c(N)c(Cl)c2)n1
4. Nc1ccc(-c2nnn(-c3ccccc3)n2)cc1Cl
5. Nc1c(Cl)cc(-c2nn[nH]n2)cc1Cl

Result:
2.95
2.14
3.78
3.28
1.40

For every listed record, write down its logP (pH2).
1. Cc1cc(-c2nn[nH]n2)cc(Cl)c1N
2. Nc1ccc(Cl)cc1-c1nn[nH]n1
3. Nc1ccc(-c2nnn(C(F)F)n2)cc1
4. Nc1ccc(-c2nnnn2C(F)F)c(Cl)c1
5. CC(C)(C)n1nnc(-c2ccc(N)c(Cl)c2)n1
6. Nc1ccc(-c2nnnn2C(F)F)cc1

Result:
[1.20, 1.50, 1.49, 1.81, 2.94, 1.24]

Please state logP (pH2) for every compound in the list that follows.
1. CCCn1nnc(-c2cc(Cl)c(N)cc2Cl)n1
2. Nc1ccc(-c2nn[nH]n2)c(Cl)c1

Result:
1: 2.75; 2: 1.53

---

assayName: logP (pH2) determination by HPLC, EEC directive 79/831 Annex V. A8
Assay type: physicochemical
experimentalParameters: pH2; Table 2, tetrazolylanilines of formula (III)
Provide the recorded logP (pH2) for the entries that follow.

Before answering, review these 3 worked examples.
In [3]: df
Out[3]:
                                   compound  measuredresult
0       Nc1ccc(-c2nnnn2C(F)F)cc1Cl [III-16]            1.92
1   Nc1cc(Cl)c(-c2nnnn2C(F)F)cc1Cl [III-29]            2.36
2  CC(=O)OCCn1nnc(-c2ccc(N)c(Cl)c2)n1 [III-24]            1.92

Each compound below has a reported value. Please supply its logP (pH2).
1. CCOCn1nnc(-c2ccc(N)c(Cl)c2)n1 [III-11]
2. Nc1cc(Cl)c(-c2nn[nH]n2)cc1Cl [III-8]
3. CC(C)Cn1nnc(-c2cc(Cl)c(N)cc2Cl)n1 [III-21]
4. Nc1ccc(-c2nnn(C(F)F)n2)c(Cl)c1 [III-48]
5. CC(C)(C)n1nnc(-c2ccc(N)cc2)n1 [III-23]
6. Nc1cc(Cl)c(-c2nnn(C(F)F)n2)cc1Cl [III-28]

Result:
1: 2.34; 2: 1.16; 3: 3.15; 4: 2.09; 5: 1.69; 6: 2.69

Give logP (pH2) for each listed item.
1. Nc1ccc(-c2nnn(CCC(F)=C(F)F)n2)cc1Cl [III-18]
2. CCCn1nnc(-c2ccc(N)c(Cl)c2)n1 [III-12]

Result:
1: 2.68; 2: 2.52
